B1: Dystrobrevin alpha, residues 235 to 294; numbered along this chain, Q9Y4J8 (parent)
chain: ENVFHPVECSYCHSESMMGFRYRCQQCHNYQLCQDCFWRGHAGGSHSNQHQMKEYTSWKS

variants of: B1; test: abundance fitness (aPCA) (normalised: wild type 0, dead -1); higher = more abundant; growth selection in yeast, the domain comes from the species named; settings: Homo sapiens
attribute-measured: abundance fitness
Answer using only a numeral; do not append any unit.

Ask: Find the recorded abundance fitness belonging to `S45G` and report it.
Reply: 0.099

Ask: How about this variant: `N2A`
Reply: 0.066

Ask: How about this variant: `S14A`
Reply: -0.051

Ask: How about this variant: `V7F`
Reply: -0.428

Ask: How about this variant: `F37E`
Reply: -0.101

Ask: How about this variant: `C33Y`
Reply: -0.954

Ask: How about this variant: `D35I`
Reply: -0.113

Ask: How about this variant: `Y22N`
Reply: -0.364

Ask: How about this variant: `M18Q`
Reply: 0.156

Ask: How about this variant: `C24P`
Reply: -1.08

Ask: How about this variant: `S16V`
Reply: 0.009

Ask: How about this variant: `Q51S`
Reply: 0.062

Ask: How about this variant: `R23E`
Reply: 0.03

Ask: How about this variant: `Y55K`
Reply: -0.609

Ask: How about this variant: `Y11N`
Reply: -0.256

Ask: How about this variant: `K53G`
Reply: -0.248

Ask: How about this variant: `S14E`
Reply: -0.074

Ask: How about this variant: `R23T`
Reply: -0.008

Ask: How about this variant: `Q34S`
Reply: -0.087

Ask: How about this variant: `Q51Y`
Reply: 0.077

Ask: How about this variant: `Q25I`
Reply: -0.208

Ask: How about this variant: `Q51M`
Reply: -0.334

Ask: How about this variant: `C12A`
Reply: -0.883

Ask: How about this variant: `H50V`
Reply: -0.686

Ask: How about this variant: `S47H`
Reply: -0.091

Ask: How about this variant: `E8L`
Reply: -0.233

Ask: How about this variant: `S60I`
Reply: -0.519

Ask: How about this variant: `N29P`
Reply: -0.388

Ask: How about this variant: `T56P`
Reply: 0.126

Ask: How about this variant: `C9G`
Reply: -0.93

Ask: How about this variant: `S57V`
Reply: 0.005

Ask: How about this variant: `G19L`
Reply: -0.134

Ask: How about this variant: `G43V`
Reply: -0.352

Ask: How about this variant: `S45I`
Reply: -0.394

Ask: How about this variant: `Y22R`
Reply: -0.241

Ask: How about this variant: `H5I`
Reply: 0.321

Ask: How about this variant: `M17Q`
Reply: -0.019

Ask: How about this variant: `G19D`
Reply: -0.046

Ask: How about this variant: `W58A`
Reply: 0.258

Ask: How about this variant: `Y30H`
Reply: -0.53

Ask: How about this variant: `Q26D`
Reply: 0.341

Ask: How about this variant: `G40Q`
Reply: -0.281

Ask: How about this variant: `H41S`
Reply: 0.037

Ask: How about this variant: `F4A`
Reply: -0.049

Ask: How about this variant: `Q34R`
Reply: -0.047

Ask: How about this variant: `H28R`
Reply: -0.002

Ask: How about this variant: `N48F`
Reply: -0.274

Ask: How about this variant: `M52G`
Reply: -0.554

Ask: How about this variant: `C33I`
Reply: -0.884

Ask: How about this variant: `E8W`
Reply: -0.39

Ask: How about this variant: `H28N`
Reply: 0.152

Ask: How about this variant: `G43H`
Reply: -0.09

Ask: How about this variant: `Q34W`
Reply: -0.606

Ask: How about this variant: `H50C`
Reply: -0.301

Ask: How about this variant: `Q34M`
Reply: -0.302

Ask: How about this variant: `P6M`
Reply: -0.071

Ask: How about this variant: `Q34E`
Reply: 0.044

Ask: How about this variant: `E15S`
Reply: 0.03

Ask: How about this variant: `N29D`
Reply: 0.052

Ask: How about this variant: `S16N`
Reply: -0.011

Ask: How about this variant: `E8A`
Reply: -0.365

Ask: How about this variant: `G19I`
Reply: -0.256

Ask: How about this variant: `M17E`
Reply: 0.116

Ask: How about this variant: `S57H`
Reply: 0.124

Ask: How about this variant: `G44W`
Reply: -0.616

Ask: How about this variant: `Y22S`
Reply: -0.405

Ask: How about this variant: `N48R`
Reply: -0.182

Ask: How about this variant: `S16Q`
Reply: 0.043

Ask: How about this variant: `H13P`
Reply: -0.677

Ask: How about this variant: `M18K`
Reply: 0.029

Ask: How about this variant: `M52S`
Reply: -0.628

Ask: How about this variant: `H13W`
Reply: -0.584

Ask: How about this variant: `S47V`
Reply: -0.199

Ask: How about this variant: `V7D`
Reply: -0.012

Ask: How about this variant: `F37M`
Reply: 0.081

Ask: How about this variant: `V7W`
Reply: -0.072

Ask: How about this variant: `N2Y`
Reply: -0.035

Ask: How about this variant: `A42G`
Reply: -0.026

Ask: How about this variant: `W38Y`
Reply: 0.214

Ask: How about this variant: `C33K`
Reply: -0.983

Ask: How about this variant: `Q25M`
Reply: 0.061

Ask: How about this variant: `H5N`
Reply: 0.259

Ask: How about this variant: `S14D`
Reply: -0.13

Ask: How about this variant: `Q25P`
Reply: -0.426

Ask: How about this variant: `R21S`
Reply: 0.138

Ask: How about this variant: `M17K`
Reply: 0.136

Ask: How about this variant: `H41P`
Reply: -0.192

Ask: How about this variant: `N29Q`
Reply: 0.1

Ask: How about this variant: `K53H`
Reply: -0.167

Ask: How about this variant: `A42M`
Reply: -0.04

Ask: How about this variant: `C27L`
Reply: -0.998
